- Tested on: THP-1
- procedure-summary: THP-1 cell loss relative to DMSO control; higher = more host cell loss (toxicity); extreme values may be limits of the assay
- condition-info: 10 µM; 4 days; infection: M. tuberculosis H37Rv
measure-name: THP-1 cell loss (%)
Output spec: scalar in %, unitless text.

## Task Please look at this molecule and report its THP-1 cell loss: CCN(CC)CCCCNc1ncc2cc(-c3cc(OC)cc(OC)c3)c(NC(=O)NC(C)(C)C)nc2n1
## Result 8.25

## Task Please look at this molecule and report its THP-1 cell loss: Cc1cc(I)ccc1Nc1c(C(=O)NOCC2CC2)cc(F)c(F)c1F
## Result 100

## Task Please look at this molecule and report its THP-1 cell loss: CC#CC(=O)Nc1cc2c(Nc3ccc(F)c(Cl)c3)ncnc2cn1
## Result 89.9

## Task Please look at this molecule and report its THP-1 cell loss: COc1ccc(-c2ccc3c(N4CCOC[C@@H]4C)nc(N4CCOC[C@@H]4C)nc3n2)cc1CO
## Result 40.8

## Task Please look at this molecule and report its THP-1 cell loss: CCCCCCCC(=O)OCCOC(=O)CCCCCCC
## Result 4.61

Measured values drawn from the supplement of paper PMC7530171 for this set.
